Cited source for all entries: paper PMC9476183

# SYSTEM TESTED: recombinant human CYP1B1 (Homo sapiens, UniProt Q16678)
# Sequence (Q16678 1-543): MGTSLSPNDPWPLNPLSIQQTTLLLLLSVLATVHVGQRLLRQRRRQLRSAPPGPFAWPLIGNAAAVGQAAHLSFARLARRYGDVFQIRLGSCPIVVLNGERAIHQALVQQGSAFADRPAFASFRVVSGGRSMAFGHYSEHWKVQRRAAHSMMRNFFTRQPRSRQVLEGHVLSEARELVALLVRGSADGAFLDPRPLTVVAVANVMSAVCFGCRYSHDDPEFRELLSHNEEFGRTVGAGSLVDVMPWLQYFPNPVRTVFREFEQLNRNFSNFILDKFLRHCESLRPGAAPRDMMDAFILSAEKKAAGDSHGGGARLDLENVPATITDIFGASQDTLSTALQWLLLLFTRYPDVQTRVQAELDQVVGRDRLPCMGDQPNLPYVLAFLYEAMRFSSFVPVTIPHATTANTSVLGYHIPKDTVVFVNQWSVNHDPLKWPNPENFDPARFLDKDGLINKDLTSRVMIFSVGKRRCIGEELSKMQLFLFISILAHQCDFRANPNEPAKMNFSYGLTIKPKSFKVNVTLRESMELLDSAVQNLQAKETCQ
# MEASUREMENT DESCRIPTION: EROD assay, CYP1B1 inhibition
# RUN PARAMETERS: IC50 CYP1B1 ± SD, recombinant human enzyme, EROD assay, triplicate

{"COMPOUND": "COc1ccc(Cl)cc1C(=O)NCCc1ccc(S(=O)(=O)NC(=O)NC2CCCCC2)cc1 [glibenclamide]", "SYSTEM TESTED": "recombinant human CYP1B1 (Homo sapiens, UniProt Q16678)", "VALUE UNITS": "nM", "CENSOR SYMBOL": ">", "IC50": 10000}
{"COMPOUND": "CC1CCc2c(N3CCC(O)CC3)c(F)cc3c(=O)c(C(=O)O)cn1c23 (stereo not drawn)", "SYSTEM TESTED": "recombinant human CYP1B1 (Homo sapiens, UniProt Q16678)", "VALUE UNITS": "nM", "CENSOR SYMBOL": "=", "IC50": 1460}
{"COMPOUND": "CCCSc1nc(N[C@@H]2C[C@H]2c2ccc(F)c(F)c2)c2nnn([C@@H]3C[C@H](OCCO)[C@@H](O)[C@H]3O)c2n1", "SYSTEM TESTED": "recombinant human CYP1B1 (Homo sapiens, UniProt Q16678)", "VALUE UNITS": "nM", "CENSOR SYMBOL": "=", "IC50": 2810}
